test system: Kyn levels in BxPC-3 cells; experiment: Automated (high-throughput) Kyn assay in IFN-γ-stimulated BxPC-3 cells; type: cell-based, human; details: Homo sapiens, BXPC-3, read-out: Kyn assay inhibition
Parameter: inhibition at 7.1 µM (%)
Report the value in % with no unit label.

Compound	Test System	inhibition at 7.1 µM [%]
NC(=O)Cn1cc(C=O)c2cc(Br)ccc21 [1x]	Kyn levels in BxPC-3 cells	-3
O=C(c1cn(CCOc2ccc(F)cc2)c2ccc(Br)cc12)C(F)(F)F [1g]	Kyn levels in BxPC-3 cells	100
COc1ccc(OCCn2cc(C(=O)C(F)(F)F)c3ccccc32)cc1	Kyn levels in BxPC-3 cells	18
Cc1c(C(=O)C(F)(F)F)c2ccccc2n1CC(=O)N1CCCCC1	Kyn levels in BxPC-3 cells	-1
O=C(c1cn(CCOc2ccc3c(c2)OCO3)c2ccc(Br)cc12)C(F)(F)F [compound 1a]	Kyn levels in BxPC-3 cells	95
COCCCNC(=O)Cn1cc(C(=O)C2CC2)c2ccccc21	Kyn levels in BxPC-3 cells	-7
Cc1ccc(OCCn2c(C)c(C(=O)C(F)(F)F)c3ccccc32)cc1	Kyn levels in BxPC-3 cells	-22
CCc1cccc2c(C(=O)C(F)(F)F)cn(CCOc3ccc(F)cc3)c12	Kyn levels in BxPC-3 cells	77

// query Need inhibition at 7.1 µM, item "O=C(c1cn(Cc2ccc(F)cc2)c2ccccc12)C1CCCCC1"
// result 21

// query Need inhibition at 7.1 µM, item O=C(Cn1cc(C(=O)C(F)(F)F)c2ccccc21)NC1CCCCCC1 [1m]
// result 55

// query Need inhibition at 7.1 µM, item NC(=O)Cn1cc(C(=O)C(F)(F)F)c2ccccc21 [1i]
// result 112

// query Need inhibition at 7.1 µM, item "O=C(c1cn(CCOc2ccccc2)c2ccccc12)C(F)(F)F"
// result 84

====

Listed here: items and their measured inhibition at 7.1 µM.
system: Kyn levels in BxPC-3 cells; test: Automated (high-throughput) Kyn assay in IFN-γ-stimulated BxPC-3 cells; assay type: cell-based, human; settings: Homo sapiens, BXPC-3, read-out: Kyn assay inhibition
Report the value in % with no unit label.

Some solved cases for reference:
Compound	Parameter	Endpoint Result
CCCCCCCCCCCc1c(C)n(C(=O)c2ccc(Cl)cc2)c2ccc(Br)cc12	inhibition at 7.1 µM	2
O=C(O)c1cn(Cc2ccc(F)cc2)c2ccccc12 [O=C(O)C1=CN(CC2=CC=C(F)C=C2)C3=CC=CC=C31]	inhibition at 7.1 µM	7
O=C(c1cn(CCCOc2ccccc2)c2ccccc12)C(F)(F)F	inhibition at 7.1 µM	10
CCC(C(=O)NCc1cccc(OC)c1)n1cc(C=O)c2ccccc21 (stereo not shown)	inhibition at 7.1 µM	71
CCOC(=O)Cn1cc(C(=O)C(F)(F)F)c2ccccc21	inhibition at 7.1 µM	-9

// query For the record CCN(CC)C(=O)Cn1cc(C(=O)C(F)(F)F)c2ccccc21 [1n] , what value of inhibition at 7.1 µM is listed for Kyn levels in BxPC-3 cells?
// result 0

// query For the record "COc1ccc(NC(=O)Cn2c(C)c(C(=O)C(F)(F)F)c3ccccc32)cc1" , what value of inhibition at 7.1 µM is listed for Kyn levels in BxPC-3 cells?
// result -2

// query For the record "CC(=O)c1cn(CC(=O)NC2CCCCCCC2)c2ccccc12" , what value of inhibition at 7.1 µM is listed for Kyn levels in BxPC-3 cells?
// result -18

// query For the record "Cc1ccc(NC(=O)Cn2cc(C(=O)C(F)(F)F)c3ccccc32)cc1Cl" , what value of inhibition at 7.1 µM is listed for Kyn levels in BxPC-3 cells?
// result 85

// query For the record O=C(Cn1cc(C(=O)C(F)(F)F)c2ccccc21)NC1CCCCC1 [1k] , what value of inhibition at 7.1 µM is listed for Kyn levels in BxPC-3 cells?
// result 41
